Molecular target: platelet 12-lipoxygenase (12-LO) (Homo sapiens)
Construct: endogenous in cells; host or cells: platelets isolated from platelet-rich plasma
Sequence (P18054 1-663): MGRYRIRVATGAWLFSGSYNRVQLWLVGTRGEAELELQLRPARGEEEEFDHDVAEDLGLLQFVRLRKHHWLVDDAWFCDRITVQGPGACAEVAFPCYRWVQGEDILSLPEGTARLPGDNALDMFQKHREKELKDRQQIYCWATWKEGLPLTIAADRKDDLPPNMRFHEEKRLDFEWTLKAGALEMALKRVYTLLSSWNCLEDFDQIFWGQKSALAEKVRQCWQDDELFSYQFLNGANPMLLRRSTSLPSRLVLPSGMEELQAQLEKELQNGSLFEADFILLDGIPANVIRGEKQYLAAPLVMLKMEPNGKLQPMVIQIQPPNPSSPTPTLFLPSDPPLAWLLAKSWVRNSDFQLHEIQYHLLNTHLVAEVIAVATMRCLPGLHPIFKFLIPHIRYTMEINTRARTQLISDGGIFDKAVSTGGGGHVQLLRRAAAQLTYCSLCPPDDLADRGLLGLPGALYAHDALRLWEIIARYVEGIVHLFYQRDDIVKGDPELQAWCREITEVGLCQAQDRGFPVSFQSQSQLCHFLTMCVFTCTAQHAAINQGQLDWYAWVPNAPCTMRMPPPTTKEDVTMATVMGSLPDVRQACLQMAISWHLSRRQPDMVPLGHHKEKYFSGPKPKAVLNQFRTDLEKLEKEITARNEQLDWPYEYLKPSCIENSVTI
Assay: Platelet activation (A23187), biosynthesis of 12-HETE
Type: cell-based
Settings: 3 μM compound, 10 μM A23187 5 min
outcome.measure: Inhibition of biosynthesis of 12-HETE in platelets

{"columns": ["compound", "recorded.measurement"],
 "data": [
  ["O=C(/C=C/c1ccc(O)c(O)c1)OCCc1ccccc1 [CAPE (2), Caffeic acid phenethyl ester, reference compound]", "near-complete inhibition"],
  ["COc1ccc(CCOC(=O)/C=C/c2ccc(O)c(O)c2)cc1", "significant inhibition"],
  ["Cc1ccc(CCOC(=O)/C=C/c2ccc(O)c(O)c2)cc1", "near-complete inhibition"],
  ["O=C(/C=C/c1ccc(O)c(O)c1)OCC(c1ccccc1)c1ccccc1", "significant inhibition"]
]}

* * *

Target: 5-LO (Homo sapiens)
Sequence (P09917 whole entry): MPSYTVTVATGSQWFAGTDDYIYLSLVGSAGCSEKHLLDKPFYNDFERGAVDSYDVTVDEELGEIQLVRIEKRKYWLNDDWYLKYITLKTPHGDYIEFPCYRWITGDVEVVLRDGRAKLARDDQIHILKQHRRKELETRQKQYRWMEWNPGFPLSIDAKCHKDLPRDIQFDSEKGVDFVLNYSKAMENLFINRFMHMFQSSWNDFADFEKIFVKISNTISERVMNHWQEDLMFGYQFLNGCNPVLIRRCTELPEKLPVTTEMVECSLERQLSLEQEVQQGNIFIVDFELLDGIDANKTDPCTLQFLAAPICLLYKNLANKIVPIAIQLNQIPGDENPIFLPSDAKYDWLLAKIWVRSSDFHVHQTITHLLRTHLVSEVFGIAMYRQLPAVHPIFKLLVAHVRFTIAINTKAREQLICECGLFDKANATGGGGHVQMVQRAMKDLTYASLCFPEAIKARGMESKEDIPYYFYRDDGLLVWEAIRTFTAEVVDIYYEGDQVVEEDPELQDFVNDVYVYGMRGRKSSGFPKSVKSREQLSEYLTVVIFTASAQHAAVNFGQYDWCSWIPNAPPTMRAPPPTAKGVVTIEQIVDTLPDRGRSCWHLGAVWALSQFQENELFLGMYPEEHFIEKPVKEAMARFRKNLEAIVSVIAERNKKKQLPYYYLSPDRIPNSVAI
Experiment: Biosynthesis of 5-LO products by thapsigargin-stimulated PMNL
Settings: freshly isolated human PMNL, 5 min preincubation, 1 μM thapsigargin 15 min; 95% CI in brackets; read-out: IC50 (95% CI) for the inhibition of 5-LO product biosynthesis in human PMNL
outcome.measure: IC50 (µM)

Example cases with answers are listed next.
{"columns": ["compound", "IC50 [µM]"],
 "data": [
  ["O=C(/C=C/c1ccc(O)c(O)c1)OCCc1ccc(F)cc1", 1.01],
  ["C=C(C)CCOC(=O)/C=C/c1ccc(O)c(O)c1", 0.87],
  ["O=C(/C=C/c1ccc(O)c(O)c1)OCCCc1ccccc1", 0.49],
  ["Cc1ccc(CCOC(=O)/C=C/c2ccc(O)c(O)c2)cc1", 1.04]
]}

1: O=C(/C=C/c1ccc(O)c(O)c1)OCC(c1ccccc1)c1ccccc1
2: COc1ccc(CCOC(=O)/C=C/c2ccc(O)c(O)c2)cc1
3: O=C(/C=C/c1ccc(O)c(O)c1)OCCc1ccccc1 [CAPE (2), Caffeic acid phenethyl ester, reference compound]
Input line: Which order do these items take when sorted by rising IC50? List them. Enter labels, ranked according to the request.
Output line: 1, 3, 2

* * *

Molecular target: platelet 12-lipoxygenase (12-LO) (Homo sapiens, UniProt P18054)
Construct: endogenous in cells; host or cells: platelets isolated from platelet-rich plasma
Experiment: Platelet activation (A23187), biosynthesis of 12-HETE
Type: cell-based
Details: 3 μM compound, 10 μM A23187 5 min
outcome.measure: Inhibition of biosynthesis of 12-HETE in platelets

{"columns": ["smiles.data", "recorded.measurement"],
 "data": [
  ["O=C(/C=C/c1ccc(O)c(O)c1)OCCc1ccc(F)cc1", "near-complete inhibition"],
  ["C=C(C)CCOC(=O)/C=C/c1ccc(O)c(O)c1", "near-complete inhibition"],
  ["O=C(/C=C/c1ccc(O)c(O)c1)OCCCc1ccccc1", "near-complete inhibition"]
]}
